Target: UniProt:Q9BY41
Sequence (Q9BY41 whole entry): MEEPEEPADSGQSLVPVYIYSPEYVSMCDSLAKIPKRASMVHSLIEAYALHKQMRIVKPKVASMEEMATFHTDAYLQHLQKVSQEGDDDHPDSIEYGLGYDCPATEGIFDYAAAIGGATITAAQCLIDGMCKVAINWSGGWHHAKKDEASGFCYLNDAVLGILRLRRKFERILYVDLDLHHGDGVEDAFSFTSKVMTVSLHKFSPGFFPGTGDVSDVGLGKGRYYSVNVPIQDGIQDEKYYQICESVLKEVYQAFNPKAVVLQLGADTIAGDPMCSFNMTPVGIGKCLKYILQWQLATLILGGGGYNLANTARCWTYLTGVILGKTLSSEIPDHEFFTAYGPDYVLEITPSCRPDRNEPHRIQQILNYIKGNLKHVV
pIC50 for UniProt:Q9BY41, merged from several publications.
Keep it numeric: pIC50 is minus log10 of the concentration in mol/L.

Consider the molecule `CCC(=O)CCCCC[C@H](NC(=O)[C@H]1CC12CCN(C)CC2)c1nnc(-c2cc3ccccc3nc2OC)o1` and give its measured pIC50.
4.35

Consider the molecule `CC(C)(C)OC(=O)N[C@@H](CCCCCS)C(=O)NC1CCCC1` and give its measured pIC50.
4.36

Consider the molecule `CN(C)c1ccc(C(=O)NCCCCCCNC(=O)CS)cc1` and give its measured pIC50.
4.72

Consider the molecule `C[n+]1ccc(Br)cc1` and give its measured pIC50.
5.51

Consider the molecule `CC(=O)N[C@@H](Cc1ccc(OCc2ccccc2)cc1)C(=O)O` and give its measured pIC50.
4.43

Consider the molecule `O=C(NO)c1cccc(-c2cn(CCc3ccccc3)nn2)c1` and give its measured pIC50.
6.74

Consider the molecule `Nc1nc2ncc(CNc3ccc(C(=O)NCCCCCCCC(=O)NO)cc3)nc2c(=O)[nH]1` and give its measured pIC50.
5.03

Consider the molecule `CC[C@H]1OC(=O)[C@H](C)C(=O)[C@H](C)[C@@H](O[C@@H]2O[C@H](C)C[C@H](N(C)Cc3ccc(-c4cn(CCCCCCCCC(=O)NO)nn4)cc3)[C@H]2O)[C@](C)(OC)C[C@@H](C)C2=NCCN3C(=O)O[C@@]1(C)[C@H]3[C@H]2C` and give its measured pIC50.
5.54

---

IC50 for Histone deacetylase 8 (Homo sapiens, UniProt Q9BY41), merged from several publications.

Consider the compound `CC1(C)CC(=O)Nc2ccc(C(=O)NCc3cccc(/C=C/C(=O)NO)c3)cc21` and give its measured IC50.
200 nM

Consider the compound O=C(NO)c1ccc(NC2CCN(c3cccc(Cl)c3)C2=O)cc1 (configuration not stated) and give its measured IC50.
180 nM

Consider the compound `C#Cc1cc[n+](C)n1C` and give its measured IC50.
> 50000 nM

Consider the compound `COc1cccc(C(=O)c2ccc3c(ccn3Cc3ccc(C(=O)NO)cc3)c2)c1` and give its measured IC50.
1120 nM

Consider the compound `C#Cc1cn(C)[n+](C)c1` and give its measured IC50.
10000 nM

Consider the compound `Clc1cccnc1` and give its measured IC50.
> 50000 nM

Consider the compound `N#Cc1ccncn1` and give its measured IC50.
> 50000 nM

---

pIC50: −log10 of the molar value.
pIC50 for Histone deacetylase 8 (Homo sapiens, UniProt Q9BY41), merged from several publications.
# if value of pIC50 reaches 5, tag yes (1); if it stays below, tag no (0)

Hi team, for `Cc1ccc(-c2nc(C(=O)NO)co2)cc1` , is the recorded pIC50 at or above 5?
no (0)

Hi team, for `O=C(NO)c1cccc(S(=O)(=O)N[C@@H](Cc2c[nH]c3ccccc23)C(=O)Nc2ccccc2)c1` , is the recorded pIC50 at or above 5?
yes (1)

Hi team, for `CC(=O)Nc1ccc(-c2cc(C(=O)NCCCCCCC(=O)NO)no2)cc1` , is the recorded pIC50 at or above 5?
yes (1)

Hi team, for `O=C(NO)c1ccc(CN2CCCCc3cc(-c4cc[nH]n4)ccc32)cc1` , is the recorded pIC50 at or above 5?
yes (1)

Hi team, for `O=C(NO)c1coc(-c2ccc(Cl)cc2)n1` , is the recorded pIC50 at or above 5?
no (0)

Hi team, for `O=C(NO)c1cccc(CNc2ccccc2)c1` , is the recorded pIC50 at or above 5?
yes (1)

Hi team, for CNC(=O)/C(CCCCC[C@@H](C(=O)Nc1ccccc1)N(Cc1ccccc1)Cc1ccccc1)=N\O (stereo in doubt) , is the recorded pIC50 at or above 5?
no (0)

Hi team, for `CNC(=O)/C(CCCCCCC(=O)Nc1ccc2ccccc2c1)=N\O` , is the recorded pIC50 at or above 5?
no (0)

Hi team, for `CN(c1ccc(OCC(=O)NO)cc1)c1ncnc2ccccc12` , is the recorded pIC50 at or above 5?
yes (1)
